experimental.protocol: Tissue distribution of TET after a single i.t. administration in normal and LPS-treated mice
study.conditions: BALB/c, mouse, spleen, other: intratracheal (i.t.), 15 mg/kg, Kp (AUC in tissue divided by AUC in blood), normal mice; 15 mg/kg i.t.; spleen
readout.name: Kp

>>> df
                                   compound  quantitative_result
0  COc1ccc2cc1Oc1ccc(cc1)C[C@H]1c3cc(c(OC)cc3CCN1C)Oc1c(OC)c(OC)cc3c1[C@H](C2)N(C)CC3 [TET, Tetrandrine]                 45.7

###

experimental.protocol: Tissue distribution of TET after a single i.t. administration in normal and LPS-treated mice
study.conditions: BALB/c, mouse, lung, inhaled or intranasal, 15 mg/kg, Tmax, normal mice; 15 mg/kg i.t.
readout.name: Tmax (h)

>>> print(df.to_string())
                                item_smiles  readout_name  quantitative_result
0  COc1ccc2cc1Oc1ccc(cc1)C[C@H]1c3cc(c(OC)cc3CCN1C)Oc1c(OC)c(OC)cc3c1[C@H](C2)N(C)CC3          Tmax                 13.3
